Tested on: MS2 coat protein
test: apparent KD of MS2 coat protein, switch OFF state (with FMN for OFF switches, without FMN for ON switches); designed switch direction (-1 OFF switch, 1 ON switch): 1; higher = weaker reporter binding
condition.info: FMN input: 0 or 200 uM; Eterna round: R93 (includes R88 designs)
Classify as follows. Reported apparent KD of MS2 coat protein greater than or equal to 100 nM: criterion met. Reported apparent KD of MS2 coat protein below: criterion not met.

[ask] Assess whether reported apparent KD of MS2 coat protein for AAACCACAUGAGGAUCACCCAUGUCCAAAAAAACAAGGAUAUAUAAAAAAAAAAAAAAAAAUAGAAGGUGUAAAAA [<insert title here>] sits at 100 nM or higher.
[reply] criterion met

[ask] Please tell me: is the sequence UGGAGACAUGAGGAUCACCCAUGUGAGAAGAGGCGAGGAUAUCGAAAAAAAAAAAAAAAACGAGAAGGCGCGAGAA [salish99-SS1-007] at or over 100 nM in terms of apparent KD of MS2 coat protein?
[reply] criterion not met

[ask] Please check the record AAAUAAAUGACUAAGGAUAUCUCAGAGAAAACAUGAGGAUCACCCAUGUAAUAAUAACAUGUGUGAGAGAAGGUAGUCAACAAAC [Same State 2.4 (Pariah 4 -changed stack on 9nt hairpin)] and state if its apparent KD of MS2 coat protein is at or above 100 nM.
[reply] criterion not met

[ask] Hi, just wondering whether AAAAAACAUGAGGAUCACCCAUGUAAAAAAACAUGAGGAUAUAUAAAAAAAAAAAAAAAGAUAGAAGGCAUAAAUA [JR_SS001_Sub1201] shows apparent KD of MS2 coat protein of 100 nM or higher.
[reply] criterion not met

[ask] # bool: apparent KD of MS2 coat protein of AAAAAACAUGAGGAUCACCCAUGUAAAAAAAUCGCAGGAUAUACGGUCGCGAAAGCGACCGUAGAAGGGCGAUCCU [Louisiana 3 - Jieux - Same State 1] >= 100 nM
[reply] criterion not met

###

Tested on: K4 kissing-loop RNA reporter;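 note: bound reporter read as fluorescence of individual clusters on recovered sequencing chips by microscopy, with normalized cluster intensities fitted with a binding model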
test: apparent KD of K4 kissing-loop reporter; higher = weaker reporter binding
condition.info: Eterna round: R107; input ligand: none
// label = 1 (yes) if apparent KD of K4 kissing-loop reporter is not less than 200 nM, otherwise 0 (no)

[ask] Confirm if apparent KD of K4 kissing-loop reporter reported for the sequence GUUUCUUGGAAACAAGGACCGCUAACCGAAGGAGCGAGUGAAAACUCAGGUAGGUCGCGGUAGCGGAGUGAUGUUCCGCGUUUAC [Excluson Arginine A GF 15] is 200 nM or above.
[reply] 0 (no)

[ask] Check the entry UUAUCUAUAUUCGAUACCAGUACCCUGUGUGUUGAUCCUUUUAUAAGUGAUGUUUAUGAGUACCCUUGGCAGCGGGUAUGGGUUU [KL-XTheo-B17] : does apparent KD of K4 kissing-loop reporter equal or exceed 200 nM?
[reply] 1 (yes)

[ask] Please indicate if the recorded apparent KD of K4 kissing-loop reporter for GCAUCCAUGGCAGGAUAUAGGUUCGUGGAGUGAUGUUCCAUAACCCGAGUGAUGUUCGUUAUCCACCUAGAAGGGCCAUGGAUGC [whbob_Ex_FMNB__2th211] meets or exceeds 200 nM.
[reply] 1 (yes)

[ask] Reported apparent KD of K4 kissing-loop reporter at or above 200 nM? GUAUAAGUGGGCGAUACCAGCUGUCGGUAGUGAUGUUAUUCAGCAGUCAGGAAGUUCGCUAGCCCUUGGCAGCGCCAGUGGUGAC [theeternabot_exclusion_KL_Theo_B_19]
[reply] 1 (yes)

[ask] Please check the record GGAGAGAACUGAAGGAGCGCCAAGAGAGAAGGAAAUAUAGUGAUGUUAUAUAAGAGAGAGAGGCAGGUAGGUCGCAGAGGGAGGA [#03 K4 Arginine B Exclusion] and state if its apparent KD of K4 kissing-loop reporter is at or above 200 nM.
[reply] 0 (no)

[ask] Identify whether the reported apparent KD of K4 kissing-loop reporter of the following sequence is 200 nM or greater: AGUGAUGUAUGGCGGUUUGUCACUUAAAAUCAGGAUAUAUAAACAAAUAGAAGGGAUGGCGGAGUGAUGUUCCGCCGGCCGCCAU [FMN A Exl V1]
[reply] 0 (no)

[ask] Identify whether the reported apparent KD of K4 kissing-loop reporter of the following sequence is 200 nM or greater: AUAAACUUGCAGUGAUGUUGCAAGUGAGACUAGGAUAUCAGGAAGCUGAGAAGGAGUCAUCUCCUUCAGACAUCACUAUGAAGGA [whbob_SS_FMNA__2th179]
[reply] 1 (yes)

[ask] Evaluate UUUGUAUCGGGAAGGAGCGUGAAUGAUAAUGGAUAUAGUGAUGUUAUAUAUAAGAACGAAUCGCAGGUAGGUCGCCCGGAUGACU [SSArgB.Q] : apparent KD of K4 kissing-loop reporter at minimum 200 nM?
[reply] 1 (yes)

[ask] Threshold query (apparent KD of K4 kissing-loop reporter >= 200 nM) on CUCAGAAAGACUGUCCAAGUGAUGUUUGGACGAGGACCGGUACGGCCGCCACUCGCUGUUGCGAAUGUUAAGGUACGAGUCGCGG [theeternabot_exclusion_KL_Trp_A_30]
[reply] 0 (no)

[ask] Decide: apparent KD of K4 kissing-loop reporter of GUAUCGCUAGGAGGAUAUUUCAAUCUGACUCUUUGAGUUAGUACGGAGUGAUGUUCCGAUUUACGGAAAGAAGGCCUAGUGAUAC [FMN B 11] >= 200 nM?
[reply] 1 (yes)

[ask] Can AGAUUCUUUUUUUUAUUUAAGUUUUCAGAAGGAGCGUGGUAGUACACAGGUAGGUCGCUGAAUUUUGGGCUAGUGAUGUUAGUUA [whbob_SS_Arginine_A_sa115] be said to have apparent KD of K4 kissing-loop reporter at or above 200 nM?
[reply] 1 (yes)

[ask] Please tell me: is the sequence UUUUAAAUAUCUGAUACCAGAGAAAAUAUAUGUAGUGAUGUUAUAUACAAAAUAAUUAAGCUCCCUUGGCAGCAGUAUUAAUUUU [AstrosExc-TheB#3] at or over 200 nM in terms of apparent KD of K4 kissing-loop reporter?
[reply] 1 (yes)

# credit: the supplement of paper PMC9170038
